# measured on: Endothelial lipase (EL) (Homo sapiens (Human), UniProt Q9Y5X9)
# Sequence (Q9Y5X9 21-500): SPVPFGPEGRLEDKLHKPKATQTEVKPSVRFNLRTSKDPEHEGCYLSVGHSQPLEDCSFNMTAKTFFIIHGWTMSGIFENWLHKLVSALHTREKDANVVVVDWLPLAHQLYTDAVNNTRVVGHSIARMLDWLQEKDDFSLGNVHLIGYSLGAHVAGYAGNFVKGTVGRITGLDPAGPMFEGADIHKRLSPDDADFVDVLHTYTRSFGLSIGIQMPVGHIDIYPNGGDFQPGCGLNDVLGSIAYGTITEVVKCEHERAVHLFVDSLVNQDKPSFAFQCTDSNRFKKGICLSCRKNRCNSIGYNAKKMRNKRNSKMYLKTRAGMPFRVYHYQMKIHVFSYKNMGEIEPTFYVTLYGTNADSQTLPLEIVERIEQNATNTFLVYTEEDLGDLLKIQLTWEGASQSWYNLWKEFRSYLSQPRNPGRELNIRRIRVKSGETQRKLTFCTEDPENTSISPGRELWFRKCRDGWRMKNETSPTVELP
# assay comment: Endothelial lipase (EL) enzymatic assay with fluorescent substrate A10070 in DMPG vesicles
# Assay type: biochemical
readout name: IC50 (µM)
Number only, in µM; omit the unit.

• Cc1cc2nc(C(C(=O)NCC(=O)NC3CC3)S(=O)(=O)C(C)C)sc2cc1-c1ccc(NC(=O)OCc2ccccc2)cc1 (stereo not shown) [Example 285] = 0.012
• COCCS(=O)(=O)C(C(=O)NCC(=O)NC1CC1)c1nc2cc(C(F)(F)F)c(-c3cnc(C)nc3)cc2s1 (stereo not shown) [Example 178] = 0.056
• COCCS(=O)(=O)C(C(=O)NCC(=O)NC1CC1)c1nc2cc(F)c(-c3ccc(NC(=O)OCc4nccs4)cc3)cc2s1 (stereo not shown) [Example 524] = 0.013

Prompt line: I am curious: what IC50 value has been reported for CS(=O)(=O)C(C(=O)NCC(=O)NC1CC1)c1nc2cc(F)c(-c3ccc(N4CCCCC4=O)cc3)cc2s1 (stereo not shown) [Example 201] ?
Response line: 0.01

###

# measured on: Endothelial lipase (EL) (Homo sapiens (Human))
# assay comment: Endothelial lipase (EL) enzymatic assay with fluorescent substrate A10070 in DMPG vesicles
# Type: biochemical
readout name: pIC50
Scale: negative log10 of molar concentration, which is what pIC50 denotes.

Check out these entries, answers already filled in.
• COCCS(=O)(=O)C(C(=O)NCC(=O)NC1CC1)c1nc2cc(Cl)c(-c3ccn(C)c(=O)c3)cc2s1 (stereo not shown) [Example 108] = 7.29
• CS(=O)(=O)C(C(=O)NCC(=O)NC1CC1)c1nc2cc(-c3ccc(F)nc3)ccc2s1 (stereo not shown) [Example 333] = 7.89
• CC(C)S(=O)(=O)C(C(=O)NCC(=O)NC1CC1)c1nc2cc(C(F)(F)F)c(-c3ccc(C(=O)N4CCOCC4)cc3)cc2s1 (stereo not shown) [Example 168] = 7.62

Here's the next entry for you.
Prompt line: Quick one: pIC50 for CS(=O)(=O)C(C(=O)NCC(=O)NC1CC1)c1nc2cc(F)c(-c3ccc4[nH]c(=O)ccc4c3)cc2s1 (stereo not shown) [Example 197] ?
Response line: 8.52

###

# measured on: Endothelial lipase (EL) (Homo sapiens (Human))
# assay comment: Endothelial lipase (EL) enzymatic assay with fluorescent substrate A10070 in DMPG vesicles
# Format: biochemical
pIC50: −log10 of the molar value.
Decide by pIC50: equal to or exceeding 8 means Yes, less means No.

Prompt line: Check if pIC50 >= 8 (inclusive). Item: CC(C)OC(=O)Nc1ccc(-c2cc3sc(C(C(=O)NCC(=O)NC4CC4)S(=O)(=O)C4CC4)nc3cc2F)cc1 (stereo not drawn) [Example 542]
Response line: Yes

Prompt line: Answer whether pIC50 of COCCS(=O)(=O)C(C(=O)NCC(=O)NC1CC1)c1nc2ccc(-c3ccc(OC(C)C)nc3)cc2s1 (stereo not drawn) [Example 291] is greater than or equal to 8.
Response line: No

Prompt line: Is pIC50 for COCCOC(=O)Nc1ccc(-c2cc3sc(C(C(=O)NCC(=O)NC4CC4)S(=O)(=O)CCOC)nc3cc2F)cc1 (stereo not drawn) [Example 535] at or above 8?
Response line: Yes

Prompt line: Quick check: does COC(=O)Nc1ccc(-c2cc(F)c3nc(C(C(=O)NCC(=O)NC4CC4)S(=O)(=O)N(C)C)sc3c2)cc1 (stereo not drawn) [Example 496] have pIC50 greater than or equal to 8?
Response line: Yes

Prompt line: Is pIC50 at least 8? Consider COCCS(=O)(=O)C(C(=O)NCC(=O)NC1CC1)c1nc2cc(-c3cccc(C(=O)OC(C)(C)C)c3)ccc2s1 (stereo not drawn) [Example 134]
Response line: Yes

Prompt line: Test whether the compound O=C(CNC(=O)C(c1nc2cc(-c3ccc(NC(=O)OCc4ccccc4)cc3)c(F)cc2s1)S(=O)(=O)C1CC1)NC1CC1 (stereo not drawn) [Example 11] records pIC50 of 8 or higher.
Response line: Yes

Prompt line: Threshold query (pIC50 >= 8) on COCCS(=O)(=O)C(C(=O)NCC(=O)NC1CC1)c1nc2cc(-c3ccc(-c4nnn[nH]4)cc3)c(F)cc2s1 (stereo not drawn) [Example 128]
Response line: No

###

# measured on: Endothelial lipase (EL) (Homo sapiens (Human))
# assay comment: Endothelial lipase (EL) enzymatic assay with fluorescent substrate A10070 in DMPG vesicles
# Type: biochemical
readout name: IC50 (nM)
The figure you give is taken to be in nM; do not add the unit.

• CN(C)S(=O)(=O)C(C(=O)NCC(=O)NC1CC1)c1nc2ccc(-c3ccc(F)nc3)cc2s1 (stereo not drawn) [Example 484] = 7
• O=C(CNC(=O)C(c1nc2ccc(-c3ccc4c(c3)C(=O)NC4)cc2s1)S(=O)(=O)c1ccc(F)cc1)NC1CC1 (stereo not drawn) [Example 451] = 39

Let us examine a further case.
Prompt line: So what's the measured IC50 for this one? Cc1cc2nc(C(C(=O)NCC(=O)NC3CC3)S(=O)(=O)C(C)C)sc2cc1-c1ccc2cnn(C)c2c1 (stereo not drawn) [Example 260]
Response line: 7

###

pIC50 by entry:
# measured on: Endothelial lipase (EL) (Homo sapiens (Human), UniProt Q9Y5X9)
# assay comment: Endothelial lipase (EL) enzymatic assay with fluorescent substrate A10070 in DMPG vesicles
# Type: biochemical
// returns pIC50 (minus log10 of molar concentration), number only

Here is how some compounds turned out for pIC50.
• COCCS(=O)(=O)C(C(=O)NCC(=O)NC1CC1)c1nc2ccc(-c3ccc4c(c3)COC4=O)cc2s1 (stereo not drawn) [Example 341] = 7.96
• COCCS(=O)(=O)C(C(=O)NCC(=O)NC1CC1)c1nc2cc(F)c(-c3ccc4c(=O)n(C)ccc4c3)cc2s1 (stereo not drawn) [Example 153] = 8.52
• CS(=O)(=O)C(C(=O)NCC(=O)NC1CC1)c1nc2c(F)c(-c3ccc(NC(=O)OCc4ccccc4)cc3)ccc2s1 (stereo not drawn) [Example 127] = 8.52
• COCCS(=O)(=O)C(C(=O)NCC(=O)NC1CC1)c1nc2cc(F)c(-c3ccc4c(c3)OCC(=O)N4)cc2s1 (stereo not drawn) [Example 417] = 7.46
• CC(C)n1cc(-c2cc3nc(C(C(=O)NCC(=O)NC4CC4)S(=O)(=O)C(C)C)sc3cc2F)ccc1=O (stereo not drawn) [Example 268] = 7.96

Please examine the following record next.
Prompt line: Given the entry COCCS(=O)(=O)C(C(=O)NCC(=O)NC1CC1)c1nc2ccc(-c3ccncc3Cl)cc2s1 (stereo not drawn) [Example 288] , report its measured pIC50.
Response line: 7.82

###

# measured on: Endothelial lipase (EL) (Homo sapiens (Human), UniProt Q9Y5X9)
# assay comment: Endothelial lipase (EL) enzymatic assay with fluorescent substrate A10070 in DMPG vesicles
# Type: biochemical
readout name: IC50 (nM)
Field format: number, assumed nM, no unit text.

Prompt line: Give its IC50 value. Item: COCCS(=O)(=O)C(C(=O)NCC(=O)NC1CC1)c1nc2cc(F)c(-c3cnc(C4CC4)nc3)cc2s1 (centres unmarked)
Response line: 7

Prompt line: If you can, please state the reported IC50 value of CC(=O)NCc1ccc(-c2cc3sc(C(C(=O)NCC(=O)NC4CC4)S(=O)(=O)c4cccc(Cl)c4)nc3cc2F)cc1 (centres unmarked) .
Response line: 5

Prompt line: IC50 lookup needed for O=C(CNC(=O)C(c1nc2cc(F)c(-c3ccc4c(c3)CCCN4C(=O)Cc3c(F)cccc3F)cc2s1)S(=O)(=O)CCC(F)(F)F)NC1CC1 (centres unmarked) , thanks.
Response line: 8

Prompt line: Using the record for COCCS(=O)(=O)C(C(=O)NCC(=O)NC1CC1)c1nc2cc(Cl)c(-c3ccc(NC(C)=O)cc3)cc2s1 (centres unmarked) , report its IC50.
Response line: 2

Prompt line: GET /values?readout=IC50&item= Cc1cc2nc(C(C(=O)NCC(=O)NC3CC3)S(=O)(=O)C(C)C)sc2cc1-c1ccc(C(=O)N(C)C)cc1 (centres unmarked)
Response line: 19

Prompt line: If you can, please state the reported IC50 value of CS(=O)(=O)C(C(=O)NCC(=O)NC1CC1)c1nc2cc(OC(F)F)c(-c3cccc(-n4cccn4)c3)cc2s1 (centres unmarked) .
Response line: 3

Prompt line: Could you tell me which IC50 is on file for CN(C)C(=O)c1ccc(-c2ccc3nc(C(C(=O)NCC(=O)NC4CC4)S(=O)(=O)Cc4ccc(F)cc4)sc3c2)cc1 (centres unmarked) ?
Response line: 18

Prompt line: What value of IC50 has been recorded for this entry: COCCS(=O)(=O)C(C(=O)NCC(=O)NC1CC1)c1nc2cc(F)c(-c3ccc4c(c3)CNC4=O)cc2s1 (centres unmarked)
Response line: 2

Prompt line: Returns the measured IC50 for the input compound. Input: COCCS(=O)(=O)C(C(=O)NCC(=O)NC1CC1)c1nc2cc(-c3cnc(F)c(C)c3)ccc2s1 (centres unmarked)
Response line: 38

Prompt line: Quick one: IC50 of Cc1cc2nc(C(C(=O)NCC(=O)NC3CC3)S(=O)(=O)C(C)C)sc2cc1-c1ccc(C(C)C)nc1 (centres unmarked) ?
Response line: 7

Prompt line: I am curious: what IC50 value has been reported for O=C(CNC(=O)C(c1nc2c(F)cc(-c3ccc(F)nc3)cc2s1)S(=O)(=O)c1ccc(F)cc1)NC1CC1 (centres unmarked) ?
Response line: 23

Prompt line: Look up IC50: COCCS(=O)(=O)C(C(=O)NCC(=O)NC1CC1)c1nc2cc(C)c(-c3ccc4c(=O)n(C)ccc4c3)cc2s1 (centres unmarked)
Response line: 4

Prompt line: // IC50 lookup, key: COCCS(=O)(=O)C(C(=O)NCC(=O)NC1CC1)c1nc2cc(F)c(-c3ccc(C(=O)N4CC(C)(O)C4)cc3)cc2s1 (centres unmarked)
Response line: 3
